Where these numbers come from: PubChem BioAssay AID1159580

What normalized growth was measured for each of the following?
Assay: chemical genetic growth profiling, strain panel (AID 1159580);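 further: tested at 20 µM; growth read once vehicle control cultures reached saturation at 30 °C; 1 = growth at the plate median or of vehicle wells; lower values mean less growth of the strain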
Settings: S. cerevisiae deletion strains, growth OD, locus YPL051W, strain arl3, hits give low values
Hit rate of the full screen: of about 5,500 compounds, about 2,000 (36%) were called active. About 18% were inconclusive and are not listed. This is one part of the list.
The answer should be a number; do not append a unit.

Prompt line: Looking for the measured normalized growth of O=c1c(O)cc([C@H]2Oc3cc(O)cc(O)c3C[C@H]2O)cc2c([C@H]3Oc4cc(O)cc(O)c4C[C@H]3O)cc(O)c(O)c12 , can you help?
Response line: 1.02

Prompt line: Do the same for COC1=CC(C)[C@@H]2C[C@H]3OC(=O)C[C@H]4C(C)=C(OC)C(=O)C([C@@]34C)[C@@]2(C)C1=O (stereo partly specified) please
Response line: 1

Prompt line: Please do the same for O=C(Oc1ccccc1C(=O)O)c1ccccc1O as well.
Response line: 0.993

Prompt line: Another: CC(=O)Oc1ccccc1C(=O)Oc1ccccc1C(=O)O
Response line: 1.03

Prompt line: Query O=C(Oc1cccc2cccnc12)c1ccccc1 next
Response line: 0.932

Prompt line: Further, for COC(=O)NC(=S)Nc1ccccc1NC(=S)NC(=O)OC ?
Response line: 0.957

----------
Test: chemical genetic growth profiling, strain panel (AID 1159580)
Conditions: S. cerevisiae deletion strains, growth OD, locus YCL061C, strain MRC1, hits give low values
Out of some 5,500 compounds screened, about 2,000 (36%) were called active. Inconclusive results (about 18%) are left out. The list shows a part of the results.
Answer each item with its documented normalized growth.
Give the figure by itself; no unit, no explanation.

Prompt line: Which normalized growth value is on record for COC(OC)c1ccc(C#N)c(=S)[nH]1 ?
Response line: 1.01

Prompt line: Can you check N#CCCN1C(=O)C2(OCCO2)c2ccccc21 next?
Response line: 1

Prompt line: Moving on to the next molecule: O=C(O)c1oc(C(=O)O)c(OCc2ccccc2)c1OCc1ccccc1
Response line: 0.984

Prompt line: Same thing, different molecule: NC[C@H]1O[C@H](O[C@H]2[C@H](O)[C@@H](O[C@H]3O[C@H](CO)[C@@H](O)[C@H](N)[C@H]3O)[C@H](N)C[C@@H]2N)[C@H](N)[C@@H](O)[C@@H]1O
Response line: 0.993

Prompt line: Further, for Cc1ccc(-c2nc3ccc(C)cn3c2CC(=O)N(C)C)cc1 ?
Response line: 1.02

----------
Assay: chemical genetic growth profiling, strain panel (AID 1159580)
Details: S. cerevisiae deletion strains, growth OD, locus YLR370C, strain arc18, hits give low values
The campaign covered roughly 5,500 compounds. About 2,000 (36%) were called active. Inconclusive results (about 18%) are left out. The list shows a part of the results.
Task for the reader: assign each of the following compounds its reported normalized growth.

Prompt line: Entry COC(=O)C[C@H]1C(C)(C)[C@@H](O)[C@@H]2CC3=C4CC(O)O[C@@H](c5ccoc5)[C@]4(C)CCC3[C@@]1(C)C2=O (some centres not stated) : reported normalized growth = ?
Response line: 1 (inactive)

Prompt line: Likewise for NC[C@@H]1O[C@H](O[C@@H]2[C@@H](CO)OC(O[C@@H]3[C@@H](O)[C@H](N)C[C@H](N)[C@H]3O[C@H]3O[C@H](CO)[C@@H](O)[C@H](O)[C@H]3N)[C@@H]2O)[C@H](N)[C@@H](O)[C@@H]1O (some centres not stated) ?
Response line: 0.992 (inactive)

Prompt line: Then C[C@@H]1CC[C@@]23CCC4(C)[C@@](C=CC5[C@@]6(C)CC[C@H](O)C(C)(C)C6CC[C@]54C)(OC2=O)C3[C@H]1C (some centres not stated) ?
Response line: 1.01 (inactive)

Prompt line: For CC1(C)C(=O)CC[C@@]2(C)C1C[C@@H](O)[C@@]1(C)C3=CC(=O)O[C@@H](c4ccoc4)[C@]3(C)CCC21 (some centres not stated) then?
Response line: 1.02 (inactive)

Prompt line: Also COC1=CC(=O)C=C(OC)C1=O ?
Response line: 1.01 (inactive)

Prompt line: Another: CC1=C2C(O)C(=O)OC3CC4C(C)(C)C(=O)C=C[C@]4(C)C(CC1)[C@]23C (some centres not stated)
Response line: 1 (inactive)

Prompt line: Can you check CC(=O)OCC(=O)[C@@]1(O)CCC2C3C[C@H](C)C4=CC(=O)C=CC4(C)C3[C@@H](O)CC21C (some centres not stated) next?
Response line: 1.01 (inactive)

----------
Test: chemical genetic growth profiling, strain panel (AID 1159580);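 further: tested at 20 µM; growth read once vehicle control cultures reached saturation at 30 °C; 1 = growth at the plate median or of vehicle wells; lower values mean less growth of the strain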
Settings: S. cerevisiae deletion strains, growth OD, locus YER110C, hits give low values
Among all 5,500 compounds or so, about 2,000 (36%) were called active. Inconclusive results (about 18%) are left out. Some of the results follow.
Criterion: normalized growth strictly under 1. Met: yes. Not met: no.

Prompt line: Say whether its normalized growth is strictly beneath 1. Entry: COc1cc(C)c2c(=O)c3c(O)cc(O)cc3oc2c1
Response line: yes

Prompt line: Queued: CC(=O)O[C@@H]1c2c(ccc3ccc(=O)oc23)OC(C)(C)[C@@H]1OC(=O)CC(C)C
Response line: no

Prompt line: Same question for O=c1c(O)cc([C@H]2Oc3cc(O)cc(O)c3C[C@H]2O)cc2c([C@H]3Oc4cc(O)cc(O)c4C[C@H]3O)cc(O)c(O)c12 please.
Response line: no

----------
Assay: chemical genetic growth profiling, strain panel (AID 1159580);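 further: tested at 20 µM; growth read once vehicle control cultures reached saturation at 30 °C; 1 = growth at the plate median or of vehicle wells; lower values mean less growth of the strain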
Conditions: S. cerevisiae deletion strains, growth OD, locus YER016W, strain bim1, hits give low values
The campaign covered roughly 5,500 compounds. About 2,000 (36%) were called active. Inconclusive results (about 18%) are left out. The list shows a part of the results.
I'd appreciate it if you could supply normalized growth values for the items below.

Prompt line: // normalized growth lookup, key: C[C@@H]1CC[C@@]23CCC4(C)[C@@](C=CC5[C@@]6(C)CCC(=O)C(C)(C)C6CC[C@]54C)(OC2=O)C3[C@H]1C (stereo partly drawn)
Response line: 0.993 (inactive)

Prompt line: Next compound up: O=c1c(O)cc([C@H]2Oc3cc(O)cc(O)c3C[C@H]2O)cc2c([C@H]3Oc4cc(O)cc(O)c4C[C@H]3O)cc(O)c(O)c12
Response line: 1.04 (inactive)

Prompt line: # repeat for CC1=CC(=O)C(C(C)C)=CC1=O
Response line: 1.01 (inactive)

Prompt line: And CCCc1nn(C)c2c(=O)[nH]c(-c3cc(S(=O)(=O)N4CCN(C)CC4)ccc3OCC)nc12 ?
Response line: 0.988 (inactive)

Prompt line: Same question, CCCc1nc(C)c2c(=O)[nH]c(-c3cc(S(=O)(=O)N4CCN(CC)CC4)ccc3OCC)nn12 this time
Response line: 0.973 (inactive)

Prompt line: Same read-out for COc1cc(C(=O)N2CCOCC2)cc(OC)c1OC ?
Response line: 0.987 (inactive)

Prompt line: What about CC1=CC(=O)C2C(C)(C)CCC[C@]2(C)[C@@]1(O)CCc1ccoc1 (stereo partly drawn) ?
Response line: 0.994 (inactive)

Prompt line: Now consider CC(=O)O[C@@H]1CC2C(C)(CC[C@H](O)C2(C)C)C2CC[C@]3(C)C(=CC(=O)O[C@H]3c3ccoc3)C21C (stereo partly drawn) .
Response line: 0.99 (inactive)

----------
Assay: chemical genetic growth profiling, strain panel (AID 1159580);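 further: tested at 20 µM; growth read once vehicle control cultures reached saturation at 30 °C; 1 = growth at the plate median or of vehicle wells; lower values mean less growth of the strain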
Conditions: S. cerevisiae deletion strains, growth OD, locus YOL012C, strain htz1
The whole screen tested about 5,500 compounds, of which about 2,000 (36%) were called active. Not shown: some 18% with an inconclusive outcome. This is one part of the list.
So I've got a bunch of compounds here, and I need their normalized growth values.
Please state the value as a number alone, without comment.

Prompt line: # lookup: normalized growth of COc1c(O)cc2c(c1O)[C@H]1O[C@H](CO)[C@@H](O)[C@H](O)[C@@H]1OC2=O
Response line: 0.964

Prompt line: Continue with CC(=O)OC1CC[C@@]2(C)C(CCC3C2CC[C@]2(C)C(C4=CC(=O)OC4)C(OC(C)=O)CC32O)C1 (stereo partly specified)
Response line: 0.875

Prompt line: Note, next up: C[C@H]1O[C@@H](O[C@H]2[C@@H](O)C[C@H](O[C@H]3[C@@H](O)C[C@H](O[C@H]4CC[C@]5(C)C6C[C@@H](O)[C@]7(C)[C@@H](C8=CC(=O)OC8)CC[C@]7(O)C6CC[C@@H]5C4)O[C@@H]3C)O[C@@H]2C)C[C@H](O)[C@@H]1O (stereo partly specified)
Response line: 0.951

Prompt line: Input C[C@H]1[C@H](C)CC[C@]2(C(=O)O)CC[C@]3(C)C(=CCC4[C@@]5(C)C[C@@H](O)[C@H](O)[C@@](C)(CO)C5[C@H](O)C[C@]43C)[C@H]12 (stereo partly specified)
Response line: 0.605

Prompt line: Also need CC(C)(C)NCC(O)COc1cccc2c1C[C@H](O)[C@H](O)C2 (stereo partly specified) , thanks.
Response line: 1.13

Prompt line: Can you check COC1CC(O[C@H]2CC[C@]3(C=O)C4CC[C@]5(C)C(C6=CC(=O)OC6)CC[C@]5(O)C4CC[C@]3(O)C2)OC(C)C1O (stereo partly specified) next?
Response line: 0.64

Prompt line: Follow-up item: CC[C@H]1CN2CCC1C[C@@H]2[C@@H](O)c1ccnc2ccc(OC)cc12 (stereo partly specified)
Response line: 0.815

Prompt line: # repeat for O=C(O)c1cc(O)ccc1O
Response line: 1.12

Prompt line: Please do the same for C[N+]1(C)C[C@H](O)[C@H](C(=O)[O-])C1 as well.
Response line: 0.813

Prompt line: Similarly, CNC[C@H](O)c1cccc(O)c1 ?
Response line: 0.81

Prompt line: Subsequent entry: C[C@H]1O[C@@H](O[C@H]2[C@@H](O)C[C@H](O[C@H]3[C@@H](O)C[C@H](O[C@H]4CC[C@]5(C)C6CC[C@]7(C)[C@@H](C8=CC(=O)OC8)CC[C@]7(O)C6CC[C@@H]5C4)O[C@@H]3C)O[C@@H]2C)C[C@H](O)[C@@H]1O (stereo partly specified)
Response line: 0.968

Prompt line: Entry CC[C@@]1(O)C(=O)OCc2c1cc1n(c2=O)Cc2cc3ccccc3nc2-1 please
Response line: 0.487

Prompt line: Check CC1(C)Oc2ccc3ccc(=O)oc3c2CC1O (stereo unspecified) too.
Response line: 0.905

Prompt line: Also CCC(=O)OCC(=O)C1(OC(=O)CC)C(C)CC2C3CCC4=CC(=O)C=CC4(C)C3(Cl)C(O)CC21C (stereo unspecified) ?
Response line: 1.1

Prompt line: Please answer likewise for CC(=O)[C@@]1(O)CCC2C3C=C(Cl)C4=CC(=O)[C@@H]5CC5[C@]4(C)C3CC[C@@]21C (stereo partly specified)
Response line: 1.53

Prompt line: Same question, COc1ccc(-c2cc(=O)c3c(O)cc(O)cc3o2)cc1O this time
Response line: 0.983
